Molecular target: PKR WT (Homo sapiens)
Sequence (P30613 whole entry): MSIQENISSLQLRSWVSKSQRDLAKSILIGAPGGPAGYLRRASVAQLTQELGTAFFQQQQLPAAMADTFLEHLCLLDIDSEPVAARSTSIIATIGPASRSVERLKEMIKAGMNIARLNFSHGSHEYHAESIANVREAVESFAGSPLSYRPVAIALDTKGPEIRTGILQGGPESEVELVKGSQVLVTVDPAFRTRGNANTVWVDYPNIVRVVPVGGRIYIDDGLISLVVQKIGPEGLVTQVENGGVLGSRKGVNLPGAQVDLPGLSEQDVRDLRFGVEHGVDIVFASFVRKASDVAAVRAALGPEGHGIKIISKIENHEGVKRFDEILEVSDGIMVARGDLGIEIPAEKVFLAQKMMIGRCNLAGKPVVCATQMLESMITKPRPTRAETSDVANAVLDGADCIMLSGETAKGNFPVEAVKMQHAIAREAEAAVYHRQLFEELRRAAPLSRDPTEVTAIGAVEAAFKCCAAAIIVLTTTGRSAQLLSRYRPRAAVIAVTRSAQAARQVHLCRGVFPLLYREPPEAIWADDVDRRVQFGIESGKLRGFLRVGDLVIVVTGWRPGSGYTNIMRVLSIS
Assay: PKR WT cell based AC50 assay
Details: wild type PKR

compound	AC50
COc1ccccc1CC1(O)CCN(C(=O)c2ccc(NS(=O)(=O)c3cccc4cccnc34)cc2)CC1	< 100 nM
CC(F)(F)CCC1(O)CCN(C(=O)c2ccc(NS(=O)(=O)c3cccc4nccnc34)cc2OC(F)F)CC1	101 to 1000 nM
O=C(c1ccc(NS(=O)(=O)c2cccc3cccnc23)cc1)N1CCC(O)(Cc2cccc(F)c2)CC1	< 100 nM
Nc1nc2c(S(=O)(=O)Nc3ccc(C(=O)N4CCC(O)(c5ccccc5Cl)CC4)cc3)cc(F)cc2s1	< 100 nM
O=C(c1ccc(NS(=O)(=O)c2cccc(Cl)c2Cl)cc1)N1CCC(O)(Cc2ccccc2)CC1	101 to 1000 nM
CC(CC1(O)CCN(C(=O)c2ccc(NS(=O)(=O)c3cccc4scnc34)cc2)CC1)C(F)(F)F (stereo not shown)	< 100 nM
O=C(c1ccc(NS(=O)(=O)c2ccc(F)c3cccnc23)cc1)N1CCC(O)(c2ccccc2Cl)CC1	< 100 nM

====

Biological target: PKR R532W (Homo sapiens, UniProt P30613, R532W)
Sequence (P30613 whole entry R532W): as the sequence (P30613 whole entry) above, with R532W counted along it
Test: PKR Mutant Assay, AC50 against PKR R532W
Type: biochemical
Settings: mutant PKR R532W enzyme
AC50 values, listed per item

compound	AC50
O=C(c1ccc(NS(=O)(=O)c2cccc3c(O)ncnc23)cc1)N1CCC(O)(CCCC(F)(F)F)CC1	< 100 nM
O=C(c1ccc(NS(=O)(=O)c2cccc3cccnc23)cc1)N1CCC(O)(Cc2ccccn2)CC1	< 100 nM
Cc1nc2c(S(=O)(=O)Nc3ccc(C(=O)N4CCC(O)(c5ccccc5Cl)CC4)cc3)cccc2s1	101 to 1000 nM
O=C(c1ccc(NS(=O)(=O)c2cccc3ccoc23)cc1)N1CCC(O)(c2ccccc2Cl)CC1	< 100 nM
O=C(c1ccc(NS(=O)(=O)c2cccc3nccnc23)cc1)N1CCC(O)(c2ccccc2Cl)CC1	< 100 nM
CC(C)CC1(O)CCN(C(=O)c2ccc(NS(=O)(=O)c3cccc4csnc34)cc2)CC1 [Compound 376]	101 to 1000 nM
O=C(c1ccc(NS(=O)(=O)c2cccc3nccnc23)cc1)N1CCC(O)(CCC=C(F)F)CC1	< 100 nM

====

Molecular target: PKR R532W (Homo sapiens, UniProt P30613, R532W)
Experiment: PKR Mutant Assay, AC50 against PKR R532W
Assay type: biochemical
Conditions: mutant PKR R532W enzyme

compound	AC50
N#Cc1cc(NS(=O)(=O)c2cccc3cccnc23)ccc1C(=O)N1CCC(O)(c2ccccc2)CC1	101 to 1000 nM
O=C(c1ccc(NS(=O)(=O)c2ccc(F)c3cccnc23)cc1)N1CCC(O)(c2cccc(F)c2F)CC1	101 to 1000 nM
O=C(c1ccc(NS(=O)(=O)c2cccc3cccnc23)cc1)N1CCC(O)(Cc2cccnn2)CC1	101 to 1000 nM
Nc1nc2c(S(=O)(=O)Nc3ccc(C(=O)N4CCC(O)(c5cccc(F)c5F)CC4)cc3)cccc2s1	< 100 nM
O=C(c1ccc(NS(=O)(=O)c2cccc3scnc23)cc1)N1CCC(O)(c2cn[nH]c2)CC1	101 to 1000 nM
CC(CC1(O)CCN(C(=O)c2ccc(NS(=O)(=O)c3cccc4scnc34)cc2)CC1)C(F)(F)F (stereo not shown)	< 100 nM
O=C(c1ccc(NS(=O)(=O)Cc2ccccn2)cc1)N1CCC(O)(c2ccccc2Cl)CC1	> 10000 nM
